Experimental Target: T1, recombinant human activated Factor VII (FVIIa) (human, UniProt P08709 61-212; P08709 213-466, ten glutamate residues of the Gla domain may be gamma-carboxylated)
T1 construct: chains tethered by a disulfide bond; also called Factor VIIa; rFVIIa
T1 sequence 1: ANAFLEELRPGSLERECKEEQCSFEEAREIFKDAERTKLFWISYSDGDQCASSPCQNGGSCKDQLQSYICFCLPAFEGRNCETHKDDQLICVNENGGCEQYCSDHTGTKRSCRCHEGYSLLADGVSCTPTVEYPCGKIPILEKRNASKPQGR
T1 sequence 2: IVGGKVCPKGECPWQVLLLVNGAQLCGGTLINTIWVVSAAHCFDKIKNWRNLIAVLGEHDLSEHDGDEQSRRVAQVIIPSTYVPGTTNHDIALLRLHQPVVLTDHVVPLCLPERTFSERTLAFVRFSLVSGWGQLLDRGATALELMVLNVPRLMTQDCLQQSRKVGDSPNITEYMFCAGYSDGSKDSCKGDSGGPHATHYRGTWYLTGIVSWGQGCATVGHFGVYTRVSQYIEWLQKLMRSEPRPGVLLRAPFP
Experimental Details: BLI (Fortebio)
Description: All steps were performed in running buffer (20 mM HEPES buffer (pH 7.4), 150 mM NaCl, 5 mM CaCl2, 0.03% Tween 20, 1 mg/ml IgG-free BSA) at […] Antibodies were captured on anti-human tips (AHC, Fortebio) for 3 min at a concentration of 10 ug/ml. […] Following this, association was monitored for 3 min using four different concentrations of VIIa (25 nm, 50 nM, 100 nM, and 200 nM), followed by a 3 mi dissociation. Sensorgrams were analysed using Fortebio data analysis software.
Recorded Metric: Kd (nM)
State the answer as a number, implicitly in nM.

VH SEQ ID NO 610 / VL SEQ ID NO 326 (antibody, IgG4, V domains shown, humanized 11F2; IgG4 S228P/kappa) VH: QVQLQESGPGLVKPSQTLSLTCTVSGGSITSDSAWSWIRQPPGKGLEWIGYIQYSGSTNYNPSLKSRVTISVDTSKNQFSLKLSSVTAADTAVYYCARSVNYYGNSFAVGYWGQGTLVTVSS VL: EIVLTQSPATLSLSPGERATLSCRASQGISDYLHWYQQKPGEAPRLLIKYTSQPATGIPARFSGSGSGTDFTLTISSLEPEDFGVYYCQNGHSFPLTFGAGTKLELK ... 11

# ---- query binder ----
Exercise: Tell me the measured Kd of VH SEQ ID NO 634 / VL SEQ ID NO 446 (antibody, IgG4, V domains shown, humanized 11F2; IgG4 S228P/kappa) VH: QVQLQESGPGLVKPSQTLSLTCTVSGYSISSDSAWSWIRQPPGKGLEWIGYIQYSGSTNYNPSLKSRVTISRDTSKNQFSLKLSSVTAADTAVYYCARSVNYYGNSFAVGYWGQGTLVTVSS VL: EIVLTQSPATLSLSPGERATLSCRASQGVSDYLAWYQQKPGQAPRLLIKYTSQPATGIPARFSGSGSGTDFTLTISSLEPEDFAVYYCQNGHSFPLTFGQGTKLEIK , please.
Key: 7.7
